- Test system: Staphylococcus sp.
- protocolDetails: In vitro antibacterial evaluation: minimum inhibitory concentration (MIC), broth dilution method
- Type: cell-based
- appliedConditions: strain GC 4547; broth dilution, 18 hours at 35° C.
Lab note: cut-off is 2 µg/mL. Strictly less in MIC Coagulase Negative Staphylococcus (GC 4547) is criterion met. Exactly 2 µg/mL or more is criterion not met.

INSERT INTO results (compound, qualitativelabel) VALUES
  ('CC(c1ccccc1)C1NC(=O)CNC(=O)C(CO)NC(=O)C(C(O)C2CNC(=N)N2C2OC(CO)C(O)C(O)C2O)NC(=O)C(C(O)C2CNC(=N)N2)NC(=O)C(Cc2ccc(OC3OC(CO)C(OC4OC5COC(c6ccc7c(c6)OCCO7)OC5C(O)C4O)C(O)C3O)cc2)NC1=O (stereo not drawn)', 'criterion met'),
  ('CC(c1ccccc1)C1NC(=O)CNC(=O)C(CO)NC(=O)C(C(O)C2CNC(=N)N2C2OC(CO)C(O)C(O)C2O)NC(=O)C(C(O)C2CNC(=N)N2)NC(=O)C(Cc2ccc(OC3OC(CO)C(OC4OC(COC(=O)Cc5ccccc5)C(O)C(O)C4O)C(O)C3O)cc2)NC1=O (stereo not drawn) [Example 98c]', 'criterion met');

Q: Is 2 µg/mL strictly greater than the compound's reported MIC Coagulase Negative Staphylococcus (GC 4547)? compound: CC(C)=CCCC(C)C1OCC2OC(OC3C(CO)OC(Oc4ccc(CC5NC(=O)C(C(C)c6ccccc6)NC(=O)CNC(=O)C(CO)NC(=O)C(C(O)C6CNC(=N)N6C6OC(CO)C(O)C(O)C6O)NC(=O)C(C(O)C6CNC(=N)N6)NC5=O)cc4)C(O)C3O)C(O)C(O)C2O1 (stereo not drawn)
A: criterion not met

Q: Okay, and CC(c1ccccc1)C1NC(=O)CNC(=O)C(CO)NC(=O)C(C(O)C2CNC(=N)N2C2OC(CO)C(O)C(O)C2O)NC(=O)C(C(O)C2CNC(=N)N2)NC(=O)C(Cc2ccc(OC3OC(CO)C(OC4OC5COC(c6cccc(O)c6)OC5C(O)C4O)C(O)C3O)cc2)NC1=O (stereo not drawn) ?
A: criterion not met

Q: Okay, and CC(c1ccccc1)C1NC(=O)CNC(=O)C(CO)NC(=O)C(C(O)C2CNC(=N)N2C2OC(CO)C(O)C(O)C2O)NC(=O)C(C(O)C2CNC(=N)N2)NC(=O)C(Cc2ccc(OC3OC(CO)C(OC4OC5COC(C67CC8CC(CC(C8)C6)C7)OC5C(O)C4O)C(O)C3O)cc2)NC1=O (stereo not drawn) ?
A: criterion not met

Q: Okay, and CC(C)=CCOc1cccc(C2OCC3OC(OC4C(CO)OC(Oc5ccc(CC6NC(=O)C(C(C)c7ccccc7)NC(=O)CNC(=O)C(CO)NC(=O)C(C(O)C7CNC(=N)N7C7OC(CO)C(O)C(O)C7O)NC(=O)C(C(O)C7CNC(=N)N7)NC6=O)cc5)C(O)C4O)C(O)C(O)C3O2)c1 (stereo not drawn) ?
A: criterion not met

Q: Okay, and CC(c1ccccc1)C1NC(=O)CNC(=O)C(CO)NC(=O)C(C(O)C2CNC(=N)N2C2OC(CO)C(O)C(O)C2O)NC(=O)C(C(O)C2CNC(=N)N2)NC(=O)C(Cc2ccc(OC3OC(CO)C(OC4OC5COC(c6ccccc6)OC5C(O)C4O)C(O)C3O)cc2)NC1=O (stereo not drawn) ?
A: criterion met
